# assayText: Cell Viability - LYMP2-001 (AID 921);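 further: cells exposed to compound for 24 h at 37 °C; nearly all actives have a fitted effect of over 70% in size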
# conditionNotes: LYMP2-001 lymphoblastoid cell viability; series mostly up to 92.2 µM
Results filed as inconclusive are left out. Activity calls are given as the source filed them. The call rests on the fitted dose curve; in most records, active means well fitted cell-killing curve with a large enough effect; inconclusive means small, poorly fitted or top-dose-only effect; inactive means no such curve, though single readings can be large or run the other way.
Your answer must be one of the following: active, inactive

{"columns": ["molecule", "className"],
 "data": [
  ["CCCCCCc1ccc(O)cc1O", "inactive"],
  ["Oc1c(I)cc(Cl)c2cccnc12", "active"]
]}

Please state the recorded outcome for this molecule: NC(=NCCCCCCN=C(N)/N=C(\N)Nc1ccc(Cl)cc1)/N=C(\N)Nc1ccc(Cl)cc1 active

Please state the recorded outcome for this molecule: O=C1OC(c2ccc(O)cc2)(c2ccc(O)cc2)c2ccccc21 inactive

Please state the recorded outcome for this molecule: O=c1ccc2ccccc2o1 inactive

Please state the recorded outcome for this molecule: CC/C(=C(/CC)c1ccc(O)cc1)c1ccc(O)cc1 inactive

Please state the recorded outcome for this molecule: C=CCc1ccc(O)c(OC)c1 inactive

Please state the recorded outcome for this molecule: CC(=O)O[C@]1(C(C)=O)CC[C@H]2[C@@H]3C[C@H](C)C4=CC(=O)CC[C@]4(C)[C@H]3CC[C@@]21C active

---

# Test system: CP266
# assayText: qHTS profiling for inhibitors of Plasmodium falciparum proliferation (AID 504749); further: nearly all actives have a fitted effect of over 60% in size
# conditionNotes: P. falciparum in erythrocytes, SYBR Green DNA, 72 h; series mostly up to 28.7 µM
Results filed as inconclusive are left out. Active and inactive are the calls of the source. Calls come from the whole dose curve; as a rule, active = well fitted inhibition curve with a large enough effect; inconclusive = small, poorly fitted or top-dose-only effect; inactive = flat fitted curve, though single readings scatter.
Your answer must be one of the following: TRUE for active, FALSE for inactive

{"columns": ["compound", "target", "className"],
 "data": [
  ["CC1=C(C(=O)OC(C)C)C(c2cccc([N+](=O)[O-])c2)C(C(=O)OC2CN(C(c3ccccc3)c3ccccc3)C2)=C(N)N1 (centres undefined)", "CP266", "TRUE"],
  ["CCC(=O)c1c(O)cc(O)cc1O", "CP266", "FALSE"],
  ["COC(=O)[C@H]1[C@H]2C[C@H]3c4[nH]c5ccccc5c4CCN3C[C@H]2CC[C@@H]1O", "CP266", "FALSE"],
  ["C[C@H]1[C@H](NC(=O)/C(=N/OC(C)(C)C(=O)O)c2csc(N)n2)C(=O)N1S(=O)(=O)O (stereo in doubt)", "CP266", "FALSE"],
  ["Oc1ccc(Cl)c2cccnc12", "CP266", "FALSE"],
  ["CC(C)COC(=O)c1ccc(N)cc1", "CP266", "FALSE"],
  ["COC(=O)[C@@H]1CC2=CC(=O)CC[C@]2(C)[C@@]23O[C@@H]2C[C@@]2(C)[C@@H](CC[C@@]24CCC(=O)O4)[C@H]13", "CP266", "FALSE"],
  ["O=S1(=O)c2cccc3cccc(c23)N1CCCN1CCN(c2ccc(F)cc2)CC1", "CP266", "FALSE"]
]}

For the next question, use this compound.
Please state the recorded outcome for this compound: COC1=CC(=O)C[C@@H](C)[C@]12Oc1c(Cl)c(OC)cc(OC)c1C2=O FALSE

---

# assayText: qHTS Assay for Lipid Storage Modulators (AID 1519)
# conditionNotes: Drosophila S3 cells, BODIPY lipid droplet/cell ratio, laser cytometry; measured here: lipid channel max response; cells loaded with oleic acid
Records with an inconclusive call do not appear.
valueKind: max response (%)
Please respond with the number in % and leave the unit unwritten.

{"columns": ["compound", "reading"],
 "data": [
  ["c1ccc(-c2ccc(C(c3ccccc3)n3ccnc3)cc2)cc1 (stereo unspecified)", 27.7],
  ["COc1cc(NS(C)(=O)=O)ccc1Nc1c2ccccc2nc2ccccc12", -18.7],
  ["CCC(NC(C)C)C(O)c1ccc(O)c(O)c1 (stereo unspecified)", 6.31]
]}

Let me know recorded max response for CCN1CCC[C@H]1CNC(=O)c1c(OC)ccc(Br)c1OC , thanks. -15.4

Let me know recorded max response for Oc1c(Cl)cc(Cl)cc1Sc1cc(Cl)cc(Cl)c1O , thanks. 13.2

Let me know recorded max response for CCCCc1nc(Cl)c(CO)n1Cc1ccc(-c2ccccc2-c2nn[nH]n2)cc1 , thanks. 25.7

Let me know recorded max response for CC(C)(CO)[C@@H](O)C(=O)NCCCO , thanks. 22.3

Let me know recorded max response for C[C@@H](CN(C)C)CN1c2ccccc2Sc2ccccc21 , thanks. -6.89

Let me know recorded max response for CCN(CC)CCOC(=O)C(c1ccccc1)C1CCCCC1 (stereo unspecified) , thanks. 13.6

Let me know recorded max response for C[C@H](O)C(=O)Nc1c(I)c(C(=O)NC(CO)CO)c(I)c(C(=O)NC(CO)CO)c1I , thanks. -9.62

Let me know recorded max response for CC(C)COC(=O)OCN1C(=O)CN(CCN2CC(=O)N(COC(=O)OCC(C)C)C(=O)C2)CC1=O , thanks. 4.19

The measured values listed here are drawn from PubChem BioAssay (NCATS).
